Measurement target: Egl nine homolog 1 (Homo sapiens, UniProt Q9GZT9)
Sequence (Q9GZT9 whole entry): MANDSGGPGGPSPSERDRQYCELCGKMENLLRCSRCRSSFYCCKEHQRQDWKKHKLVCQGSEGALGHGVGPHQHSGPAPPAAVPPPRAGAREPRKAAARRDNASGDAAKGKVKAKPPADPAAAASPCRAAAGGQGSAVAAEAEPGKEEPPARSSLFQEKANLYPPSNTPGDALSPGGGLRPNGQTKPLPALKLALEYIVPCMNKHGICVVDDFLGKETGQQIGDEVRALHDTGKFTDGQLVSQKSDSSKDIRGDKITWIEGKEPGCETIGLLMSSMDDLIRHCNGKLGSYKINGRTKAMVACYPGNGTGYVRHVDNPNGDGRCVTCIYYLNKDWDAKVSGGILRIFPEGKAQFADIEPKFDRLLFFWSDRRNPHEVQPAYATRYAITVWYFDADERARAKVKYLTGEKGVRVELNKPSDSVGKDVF
pIC50: −log10 of the molar value.
In this section, each of the compounds is paired with its reported pIC50.

Compound smiles: O=C(O)CNC(=O)C(=O)C(=O)c1ccccc1
Measurement target: Egl nine homolog 1 (Homo sapiens, UniProt Q9GZT9)
pIC50: 3.27
//
Compound smiles: CC(=O)CC(=O)NCC(=O)O
Measurement target: Egl nine homolog 1 (Homo sapiens, UniProt Q9GZT9)
pIC50: < 3.00
//
Compound smiles: CCOC(=O)C(=O)NCC(=O)O
Measurement target: Egl nine homolog 1 (Homo sapiens, UniProt Q9GZT9)
pIC50: 4.11
//
Compound smiles: O=C(O)CCC(=O)NO
Measurement target: Egl nine homolog 1 (Homo sapiens, UniProt Q9GZT9)
pIC50: 4.03
//
Compound smiles: O=C(O)CN1CCNC(=O)C1=O
Measurement target: Egl nine homolog 1 (Homo sapiens, UniProt Q9GZT9)
pIC50: < 3.00
//
Compound smiles: O=C(O)CNC(=O)C(=O)NCc1ccccc1
Measurement target: Egl nine homolog 1 (Homo sapiens, UniProt Q9GZT9)
pIC50: < 3.00
//
Compound smiles: CCNC(=O)C(=O)CCC(=O)O
Measurement target: Egl nine homolog 1 (Homo sapiens, UniProt Q9GZT9)
pIC50: < 3.00
//
Compound smiles: CCNC(=O)C(=O)NCC(=O)O
Measurement target: Egl nine homolog 1 (Homo sapiens, UniProt Q9GZT9)
pIC50: < 3.00
